Some compounds, each annotated with its measured pIC50.
- Assay text: Cytotoxicity against human KBVIN cells after 72 hrs by sulforhodamine B assay
- Format: functional, cell-based
Units for pIC50: none; it is -log10 of a concentration expressed in mol/L.

Problem: Fill in the blank: the reported pIC50 of CC[C@@]1(O)C(=O)OCc2c1cc1n(c2=O)Cc2cc3c(CN(C)C)c(O)ccc3nc2-1 is ____.
Result: 6.54

Problem: If you can, please state the reported pIC50 value of CCCCS(=O)(=O)N1CCN(Cc2c3c(nc4ccccc24)-c2cc4c(c(=O)n2C3)COC(=O)[C@]4(O)CC)CC1 .
Result: 6.69

Problem: For CC[C@@]1(O)C(=O)OCc2c1cc1n(c2=O)Cc2c-1nc1ccccc1c2CN1CCN(S(=O)(=O)c2ccc(C(C)C)cc2)CC1 , what is its reported pIC50?
Result: 7.09

Problem: Entry CC[C@@]1(O)C(=O)OCc2c1cc1n(c2=O)Cc2c-1nc1ccccc1c2CN1CCN(S(=O)(=O)c2cc(F)cc(F)c2)CC1 : reported pIC50 = ?
Result: 6.58
